# test_description: ATG_CRE_CIS: Attagene CIS-FACTORIAL HepG2 Assay for human cAMP Responsive Element (CRE) binding protein 3 (AID 2282926)
# condition_label: HepG2 CRE cis-reporter, Attagene multiplexed mRNA; actives raise or lower the signal
Activity calls are given as the source filed them. The calls were made as follows: active = hit-call score of the fitted dose curve at least 0.9, where 1 is the maximum; inactive = score below 0.9.
Labels: y = active, n = inactive

1) O=C(O)c1ccccc1O: n
2) CC/C(=C(\c1ccccc1)c1ccc(OCCN(C)C)cc1)c1ccccc1: n
3) OCC=Cc1ccccc1: n
4) O=Cc1ccccc1O: n
5) Cc1ccccc1S: y
6) CCCCCCCCCCO[C@@H]1O[C@H](CO)[C@@H](O)[C@H](O)[C@H]1O: n
7) OCCN1CCOCC1: n
8) CC(C)=CCCC(C)=CC(=O)O: n
9) S=c1[nH][nH]c(=S)s1: n
10) O=C1CCC(=O)N1: n
11) CN(C)c1ccc(C=O)cc1: n
12) CC/C=C\CCOC(C)OCC (configuration not stated): n
